GI50 values, listed per item
# System: colon cancer cells (HCT116)
# assay: Cancer cell line growth inhibition, Sulforhodamine B assay, HCT116
# Format: cell-based
# cond: Homo sapiens, HCT-116, HCT116 colon cancer cell line; read-out: Cancer Cell Line GI50 Range HCT116
# Protocol: Breast cancer cells (MDA-MB-231 and MDA-MB-468), colon cancer cells (HCT116) and ovarian cancer cells (PA-1 and OVCAR-3) were seeded (1000 to 4000 in 80 μl per well depending on the cell growth rate) into 96 well plates 24 hours before compound overlay. […] Sulforhodamine B (purchased from Sigma, Oakville, ON, Canada) is a water-soluble dye that binds to the basic amino acids of the cellular proteins. […] Absorbance is read at 570 nm. […]

Solved entries:
smiles_repr: Cc1cc(-c2cnn3c(NCC4CCOCC4)cc(N[C@H](CO)C4CCOCC4)nc23)ccc1C(=O)NC1CC1
GI50: 100 to 500 nM

smiles_repr: Cc1cc(-c2cnn3c(NCCN4CCOCC4)cc(NC4CCCC4)nc23)ccc1C(=O)NC1CC1
GI50: 100 to 500 nM

smiles_repr: Cc1cc(-c2cnn3c(NCCN4CCC(O)CC4)cc(N[C@H]4CCCC[C@H]4O)nc23)ccc1C(=O)NC1CC1
GI50: > 500 nM

smiles_repr: Cc1cc(-c2cnn3c(NC[C@H]4C[C@](C)(O)C4)cc(Oc4cccnc4)nc23)ccc1C(=O)NC1CC1
GI50: ≤ 100 nM

smiles_repr: Cc1cc(-c2cnn3c(NCC4(F)CCN(C)CC4)cc(OC4CCCC4)nc23)ccc1C(=O)NC1CC1
GI50: 100 to 500 nM

smiles_repr: Cc1cc(-c2cnn3c(NCC4CCOCC4)cc(NC4(CO)CC4)nc23)ccc1C(=O)NC1CC1
GI50: 100 to 500 nM

Ask | Tell me the measured GI50 of "Cc1cc(-c2cnn3c(NCC4CCOCC4)cc(N(C)C4CCCC4)nc23)ccc1C(=O)NC1CC1" , please.
Reply | ≤ 100 nM

Origin of the recorded values: patent US9573954B2
